System: primary mouse hepatocytes
Experiment: In vitro glucose production, VPC and lipolysis in isolated hepatocytes
Type: cell-based
Details: WT hepatocytes, 100 nM glucagon, 8 hr
Procedure: For in vitro glucose production and lipolysis studies, primary mouse hepatocytes were isolated by the Yale Liver Center. […] VPC was determined by measuring VPC/VEGP by PINTA as described above using 300 μL of the collected media, and multiplying this ratio by the measured glucose production rate. […]
Readout Name: glucagon-stimulated glucose production

Answered examples (5):
# Compound, glucagon-stimulated glucose production
measured = [
    ("COc1ccc2c(c1)CC[C@@H]1[C@@H]2CC[C@]2(C)[C@@H](NCCCCCCN3C(=O)C=CC3=O)CC[C@@H]12", "inhibited"),
    ("C/C=C(/C)C(=O)O[C@H]1C(C)=C2[C@H]([C@@H]1OC(=O)CCCCCCC)[C@@](C)(OC(C)=O)C[C@H](OC(=O)CCC)[C@@]1(O)[C@H]2OC(=O)[C@@]1(C)O", "inhibited"),
    ("COc1ccc(S(=O)(=O)N(CCO)c2ccccc2CN(C)C/C=C/c2ccc(Cl)cc2)cc1", "abrogated"),
    ("O=S(=O)(NCCNC/C=C/c1ccc(Br)cc1)c1cccc2cnccc12 [H-89, H-89 dichloroacetate hydrate]", "abrogated"),
    ("Cn1c(=O)c2c(ncn2C)n(C)c1=O", "inhibited"),
]

Prompt line: // glucagon-stimulated glucose production lookup, key: CCCCCCCCCCCCCCCCCCOCC(COP(=O)([O-])OCC[N+](C)(C)C)OC (centres unmarked)
Response line: inhibited

Prompt line: Queued: NCCOB(c1ccccc1)c1ccccc1 [2-APB, 2-aminoethoxydiphenyl borate]
Response line: inhibited
